Assay: small-molecule microarray binders of probe aNog, primary screen, biochemical, biotinylated probe, 635/667 nm fluorescence (AID 1115);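 also: probe is biotinylated aNog protein used at 0.15 µg/mL for 1 h at 4 C; z-score combines 667 nm fluorescence of each spot with its signal to noise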
Conditions: higher = more signal
Binned composite z-score; ranges: class A = under -0.03, class B = from -0.03 up to 0.3, class C = 0.3 and over

Example cases with answers are listed next.
[[record]]
compound = "C[C@H]1C2[C@H](Cc3ccccc3)NC(=O)[C@]23C(=O)NCC(=O)N2CCC[C@H]2C(=O)NC/C=C\\C/C=C/C3[C@@H]2O[C@]12C (stereo partly drawn)"
labelclass = "class A"

[[record]]
compound = "COC(=O)[C@@]1(Cc2ccccc2CN=[N+]=[N-])COC(c2ccc(OCCCO)cc2)=N1"
labelclass = "class B"

[[record]]
compound = "COCCn1c(C(=O)N2CCCC2)cc2c1C[C@H]1CN(C(=O)c3ccccc3)[C@@](Cc3ccccc3)(C(=O)OC)[C@@H]21"
labelclass = "class C"

[[record]]
compound = "COCCOC(=O)N1C(=O)[C@@]2(c3ccccc31)[C@H](C(N)=O)[C@H]1C(=O)O[C@H](c3ccccc3)[C@H](c3ccccc3)N1[C@@H]2c1ccc(OCCO)cc1"
labelclass = "class B"

[[record]]
compound = "CCCCC(O)C1C=CC2C(=O)NC(=O)C2N1Nc1ccccn1 (stereo not drawn)"
labelclass = "class B"


## Task Which of the defined bands does the recorded composite z-score of "O=C1c2ccccc2[C@](Cc2ccccc2I)(C(=O)O)[C@H](c2ccc(CO)cc2)N1Cc1ccccc1" sit within?
## Result class A

## Task Which of the defined bands does the recorded composite z-score of "COc1ccc([Si](C)(C)[C@H]2[C@H](CC(=O)N3Cc4ccccc4C[C@H]3CO)O[C@@]3(C(=O)N(Cc4cccc(N5C(=O)c6cccc7cccc5c67)c4)c4ccccc43)[C@@H]2C)cc1" sit within?
## Result class C

## Task Which of the defined bands does the recorded composite z-score of "CCc1cccc(NC(=O)O[C@H]2[C@H](OC(=O)Nc3ccc4c(c3)OCO4)[C@H](OC(=O)Nc3ccc4c(c3)OCO4)[C@@H](OC)O[C@@H]2CO)c1" sit within?
## Result class A

## Task Which of the defined bands does the recorded composite z-score of "COCCOC(=O)N1C(=O)[C@@]2(c3cc(C#CCCO)ccc31)[C@H](c1ccccc1OCCO)N1[C@H](c3ccccc3)[C@H](c3ccccc3)OC(=O)[C@H]1[C@@H]2C(=O)N1CCc2cc(OC)c(OC)cc2C1" sit within?
## Result class A

## Task Which of the defined bands does the recorded composite z-score of "O=C1O[C@@H](c2ccccc2)[C@@H](c2ccccc2)N2[C@@H](c3ccc(O)cc3)[C@]3(C(=O)Nc4ccc(C#CC5=CCCCC5)cc43)[C@@H](C(=O)N3CCCCCCC3)[C@H]12" sit within?
## Result class C

## Task Which of the defined bands does the recorded composite z-score of "[N-]=[N+]=NCc1ccccc1[C@H]1OC(c2ccc(OCCCO)cc2)=N[C@@]1(Cc1ccccc1)C(=O)N1CCOCC1" sit within?
## Result class A

## Task Which of the defined bands does the recorded composite z-score of "CN1C(=O)[C@]2(CCC(=O)OC(C)(C)C)N=C(c3ccc(OCCCO)cc3)O[C@@H]2c2ccccc21" sit within?
## Result class C

## Task Which of the defined bands does the recorded composite z-score of "COc1cccc(C[C@H]2C[C@@H](CO[Si](C(C)C)(C(C)C)C(C)C)N3C(=O)[C@@]4(C(C)=O)O[C@@]23[C@@H]2C(=O)N(C)C(=O)[C@@H]24)c1" sit within?
## Result class B
